Experimental protocol: self-splicing fitness, log relative to wild type (ln ratio); higher = more splicing; Tetrahymena group I intron in knt gene, E. coli kanamycin selection, DiMSum; sequences stand for … in CUCUCU…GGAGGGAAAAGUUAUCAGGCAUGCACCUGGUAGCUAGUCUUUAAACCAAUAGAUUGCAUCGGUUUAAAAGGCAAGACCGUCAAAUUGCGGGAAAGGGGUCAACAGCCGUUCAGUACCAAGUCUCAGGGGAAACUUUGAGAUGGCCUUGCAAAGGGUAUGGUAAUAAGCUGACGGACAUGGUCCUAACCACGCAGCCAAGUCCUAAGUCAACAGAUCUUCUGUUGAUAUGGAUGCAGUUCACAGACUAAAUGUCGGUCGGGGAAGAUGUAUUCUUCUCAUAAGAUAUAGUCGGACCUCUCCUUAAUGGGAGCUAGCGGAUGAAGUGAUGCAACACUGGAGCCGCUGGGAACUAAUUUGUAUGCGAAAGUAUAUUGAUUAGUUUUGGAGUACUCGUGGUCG;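 further: selection with 25 µg/mL kanamycin versus none on LB agar overnight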
Measurement setup: 37 °C
Label T when self-splicing fitness (ln) is at or above -1; anything below gets F.

input: Record AAGAAGCAAUAUUACGCCAG ; criterion: self-splicing fitness (ln) no lower than -1. Met?
output: F

input: Given the entry AGAGAGCAAUAUUACGUAUC , answer whether its self-splicing fitness (ln) meets or surpasses -1.
output: F

input: # check: self-splicing fitness (ln) of CGAUAGCAAUAUUACGGAGU is greater than or equal to -1
output: F

input: Item GAUCAGCAAUAUUACGCAUU with self-splicing fitness (ln) of -1 or above?
output: F

input: Assess whether reported self-splicing fitness (ln) for GGUCAGCAAUAUUACGUGUG sits at -1 or higher.
output: T

input: Textbook exercise: given the entry UCCUAGCAAUAUUACGUUUC , state whether its self-splicing fitness (ln) is greater than or equal to -1.
output: F

input: Does the reported self-splicing fitness (ln) for CAUUAGCAAUAUUACGGGAC fall at or above the -1 mark?
output: F

###

Experimental protocol: self-splicing fitness, log relative to wild type (ln ratio); higher = more splicing; Tetrahymena group I intron in knt gene, E. coli kanamycin selection, DiMSum; sequences stand for … in CUCUCU…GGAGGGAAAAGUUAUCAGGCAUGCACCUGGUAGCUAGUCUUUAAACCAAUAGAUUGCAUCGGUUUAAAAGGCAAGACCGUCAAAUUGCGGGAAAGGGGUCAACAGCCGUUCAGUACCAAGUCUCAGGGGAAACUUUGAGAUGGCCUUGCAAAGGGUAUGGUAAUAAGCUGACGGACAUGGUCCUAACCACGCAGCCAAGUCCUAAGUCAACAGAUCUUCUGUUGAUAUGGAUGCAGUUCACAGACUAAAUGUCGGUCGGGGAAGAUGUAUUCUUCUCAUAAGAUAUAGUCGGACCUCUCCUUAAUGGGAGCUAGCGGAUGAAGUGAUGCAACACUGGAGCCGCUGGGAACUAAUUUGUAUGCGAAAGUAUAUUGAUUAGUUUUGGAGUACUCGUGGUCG
Measurement setup: 37 °C
Entries and their self-splicing fitness (ln)

For record CAUCAGCAAUAUUACGUCCU the listed self-splicing fitness (ln) is -1.91

###

Experimental protocol: self-splicing fitness, log relative to wild type (ln ratio); higher = more splicing; Tetrahymena group I intron in knt gene, E. coli kanamycin selection, DiMSum; sequences stand for … in CUCUCU…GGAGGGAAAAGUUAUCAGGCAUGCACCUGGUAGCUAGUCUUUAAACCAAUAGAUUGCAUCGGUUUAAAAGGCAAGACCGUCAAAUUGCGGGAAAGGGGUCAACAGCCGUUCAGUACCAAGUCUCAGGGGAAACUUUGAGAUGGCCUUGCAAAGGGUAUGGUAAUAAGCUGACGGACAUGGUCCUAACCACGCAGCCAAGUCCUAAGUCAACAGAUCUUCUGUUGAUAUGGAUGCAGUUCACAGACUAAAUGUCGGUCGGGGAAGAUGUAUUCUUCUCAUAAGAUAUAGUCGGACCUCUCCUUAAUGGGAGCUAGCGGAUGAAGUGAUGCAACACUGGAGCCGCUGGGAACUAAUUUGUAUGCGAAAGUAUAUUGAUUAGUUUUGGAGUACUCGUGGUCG
Measurement setup: 30 °C
Endpoint name: self-splicing fitness (ln)
Returns: the value as a bare number; no unit string appended.

{"Entry sequence": "ACUCAGCAAUAUUACGACGC", "self-splicing fitness (ln)": -0.134}
{"Entry sequence": "AGAGAGCAAUAUUACGGCGA", "self-splicing fitness (ln)": -2.95}

Now look at this one.
Lab note: measured self-splicing fitness (ln) of UAGUAGCAAUAUUACGCAGA was -2.43

###

Each entry below lists one item and its recorded self-splicing fitness (ln) value.
Experimental protocol: self-splicing fitness, log relative to wild type (ln ratio); higher = more splicing; Tetrahymena group I intron in knt gene, E. coli kanamycin selection, DiMSum; sequences stand for … in CUCUCU…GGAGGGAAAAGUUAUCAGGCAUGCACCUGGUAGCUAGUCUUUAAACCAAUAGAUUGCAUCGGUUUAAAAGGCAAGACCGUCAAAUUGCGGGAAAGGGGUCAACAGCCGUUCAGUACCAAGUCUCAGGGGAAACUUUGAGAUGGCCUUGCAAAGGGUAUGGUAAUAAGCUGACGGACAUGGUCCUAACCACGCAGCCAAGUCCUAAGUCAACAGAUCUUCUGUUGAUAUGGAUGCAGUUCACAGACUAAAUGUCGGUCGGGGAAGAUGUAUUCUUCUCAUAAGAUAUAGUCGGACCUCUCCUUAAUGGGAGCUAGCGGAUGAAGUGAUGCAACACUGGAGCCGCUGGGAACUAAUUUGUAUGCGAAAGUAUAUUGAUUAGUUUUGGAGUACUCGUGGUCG
Measurement setup: 37 °C
Reply with the value as a number alone.

{"Entry sequence": "ACAUAGCAAUAUUACGUGAU", "Reported": -1.2}
{"Entry sequence": "AGUGAGCAAUAUUACGUUGA", "Reported": -2.75}
{"Entry sequence": "ACAGAGCAAUAUUACGCCGA", "Reported": -2.76}

Lab note: AAAAAGCAAUAUUACGGGCC gave self-splicing fitness (ln) of -1.17

Entry CGAUAGCAAUAUUACGAUCG ; self-splicing fitness (ln) = -2.39

self-splicing fitness (ln) measured on GGCAAGCAAUAUUACGGGGC = -1.5

###

Experimental protocol: self-splicing fitness, log relative to wild type (ln ratio); higher = more splicing; Tetrahymena group I intron in knt gene, E. coli kanamycin selection, DiMSum; sequences stand for … in CUCUCU…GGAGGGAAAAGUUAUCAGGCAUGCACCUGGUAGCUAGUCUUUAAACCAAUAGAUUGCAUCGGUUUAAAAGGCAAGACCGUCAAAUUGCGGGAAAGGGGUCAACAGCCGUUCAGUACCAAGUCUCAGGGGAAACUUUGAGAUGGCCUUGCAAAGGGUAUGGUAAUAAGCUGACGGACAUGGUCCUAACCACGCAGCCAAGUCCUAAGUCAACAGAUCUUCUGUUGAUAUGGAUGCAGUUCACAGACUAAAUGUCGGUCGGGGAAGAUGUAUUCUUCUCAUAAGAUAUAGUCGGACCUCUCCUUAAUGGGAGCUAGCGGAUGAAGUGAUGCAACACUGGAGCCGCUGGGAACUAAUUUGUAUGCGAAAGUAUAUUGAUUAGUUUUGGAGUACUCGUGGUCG
Measurement setup: 37 °C
Endpoint name: self-splicing fitness (ln)

{"Entry sequence": "UACGAGCAAUAUUACGGAAC", "self-splicing fitness (ln)": -3.02}

Data point: AAGGAGCAAUAUUACGUGCA ; self-splicing fitness (ln) = -1.37

###

Experimental protocol: self-splicing fitness, log relative to wild type (ln ratio); higher = more splicing; Tetrahymena group I intron in knt gene, E. coli kanamycin selection, DiMSum; sequences stand for … in CUCUCU…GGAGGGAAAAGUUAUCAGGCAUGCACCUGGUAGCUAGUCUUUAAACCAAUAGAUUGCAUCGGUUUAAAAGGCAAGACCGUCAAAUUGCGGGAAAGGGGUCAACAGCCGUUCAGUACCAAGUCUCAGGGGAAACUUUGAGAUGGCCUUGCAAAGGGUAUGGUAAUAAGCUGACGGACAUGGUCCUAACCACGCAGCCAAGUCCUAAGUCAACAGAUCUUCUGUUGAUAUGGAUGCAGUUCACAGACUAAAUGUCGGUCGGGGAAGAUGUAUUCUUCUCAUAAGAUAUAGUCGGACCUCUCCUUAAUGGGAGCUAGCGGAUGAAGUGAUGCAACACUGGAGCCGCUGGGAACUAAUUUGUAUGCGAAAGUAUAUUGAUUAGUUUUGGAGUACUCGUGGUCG
Measurement setup: 37 °C
# self-splicing fitness (ln) per record follows
Please respond with just the number, no unit label.

Sample records with self-splicing fitness (ln):
{"Entry sequence": "GUACAGCAAUAUUACGUAGC", "self-splicing fitness (ln)": -2.29}
{"Entry sequence": "AUUAAGCAAUAUUACGGCGU", "self-splicing fitness (ln)": 0.712}
{"Entry sequence": "UGGCAGCAAUAUUACGAACC", "self-splicing fitness (ln)": -0.775}

UCAUAGCAAUAUUACGUGCC yielded self-splicing fitness (ln) of -1.34

Reported self-splicing fitness (ln) ( GAGCAGCAAUAUUACGACUG ) = -2.01

// self-splicing fitness (ln) value for CAGCAGCAAUAUUACGACGG : 0.472

// sample GCCUAGCAAUAUUACGAGGG , its self-splicing fitness (ln) was -1.6

Consider UACUAGCAAUAUUACGAAAG . Its measured self-splicing fitness (ln) is -1.93

The measured self-splicing fitness (ln) associated with CGUUAGCAAUAUUACGUUAG reads -0.539

Form: sequence = ACUAAGCAAUAUUACGAACA ; self-splicing fitness (ln) = -0.417

Lookup result for GCGGAGCAAUAUUACGAUCG ; measured self-splicing fitness (ln): -1.12

// field: self-splicing fitness (ln); key: CUACAGCAAUAUUACGGGGG ; value = -2.26

Sample CAGAAGCAAUAUUACGCGUU ; self-splicing fitness (ln) observed: -3.61

Data point: AUUCAGCAAUAUUACGCUGA ; self-splicing fitness (ln) = -2.6

So, UAGUAGCAAUAUUACGCCCU ? Its self-splicing fitness (ln) was -0.583

The value of self-splicing fitness (ln) measured for the sequence AUCAAGCAAUAUUACGCCGG turned out to be 0.522
